- MEASUREMENT TARGET: UniProt P29990
- Format: functional, Thailand/16681/1984
Measured IC50 by item

For orientation, consider the following solved cases.
{"COMPOUND": "N#Cc1csc2cc(C(=O)Nc3ccc4c(c3)CNC4)ccc12", "MEASUREMENT TARGET": "UniProt P29990", "ENDPOINT VALUE": "> 99.5 µM"}
{"COMPOUND": "CS(=O)(=O)c1cncc(-c2cccc([C@H](NC(=O)OCc3ccccc3)C(=O)Nc3cccc(CN)c3)c2)c1", "MEASUREMENT TARGET": "UniProt P29990", "ENDPOINT VALUE": "71.4 µM"}
{"COMPOUND": "Cc1ncc(Br)cc1C(=O)Nc1ccc2c(c1)CNC2", "MEASUREMENT TARGET": "UniProt P29990", "ENDPOINT VALUE": "> 99.5 µM"}

Inquiry: Write down IC50 measured for item NCc1cccc(NC(=O)c2cc(Cl)cc(-n3cccc3)c2)c1
Reply text: > 99.5 µM

Inquiry: Tell me IC50 reported for CCn1c(=O)c(N2C[C@@H]3CN(C4CCC4)C[C@@H]3C2)nc2ccccc21
Reply text: > 99.5 µM

Inquiry: Give a short answer stating reported IC50 for CNc1c(-c2cc(Cl)cc(C3CC3)c2)nc2cccc(C(=O)O)n12 .
Reply text: > 99.5 µM

Inquiry: Quick one: give measured IC50 for NC[C@H]1C[C@@H](CNC(=O)c2cc(Cl)cc(NC(=O)OCc3ccccc3)c2)CCO1
Reply text: > 99.5 µM

Inquiry: Using known records, supply IC50 for N[C@@H]1CC[C@H](CCNC(=O)c2cc(Cl)cc(NC(=O)OCc3ccccc3)c2)C1
Reply text: > 99.5 µM

Inquiry: Entry O=C(Nc1cccc(-n2nn[nH]c2=O)c1)c1cc(Cl)cc2c1CCC2 needs its IC50 filled in; supply it.
Reply text: > 99.5 µM

Inquiry: Provide IC50 value for the following compound: O=C(O)C1CCC2(CC1)CC(Cc1c[nH]c3ccc(Cl)cc13)C2 (stereo not given)
Reply text: 59.2 µM

###

- MEASUREMENT TARGET: Genome polyprotein (dengue virus type 2, UniProt P29990)
- Sequence (P29990 1346-1475 limits assumed): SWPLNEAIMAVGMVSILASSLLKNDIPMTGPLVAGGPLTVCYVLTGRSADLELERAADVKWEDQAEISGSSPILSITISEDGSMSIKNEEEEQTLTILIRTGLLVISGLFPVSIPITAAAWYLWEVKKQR
- Sequence (P29990 1476-2093 limits assumed): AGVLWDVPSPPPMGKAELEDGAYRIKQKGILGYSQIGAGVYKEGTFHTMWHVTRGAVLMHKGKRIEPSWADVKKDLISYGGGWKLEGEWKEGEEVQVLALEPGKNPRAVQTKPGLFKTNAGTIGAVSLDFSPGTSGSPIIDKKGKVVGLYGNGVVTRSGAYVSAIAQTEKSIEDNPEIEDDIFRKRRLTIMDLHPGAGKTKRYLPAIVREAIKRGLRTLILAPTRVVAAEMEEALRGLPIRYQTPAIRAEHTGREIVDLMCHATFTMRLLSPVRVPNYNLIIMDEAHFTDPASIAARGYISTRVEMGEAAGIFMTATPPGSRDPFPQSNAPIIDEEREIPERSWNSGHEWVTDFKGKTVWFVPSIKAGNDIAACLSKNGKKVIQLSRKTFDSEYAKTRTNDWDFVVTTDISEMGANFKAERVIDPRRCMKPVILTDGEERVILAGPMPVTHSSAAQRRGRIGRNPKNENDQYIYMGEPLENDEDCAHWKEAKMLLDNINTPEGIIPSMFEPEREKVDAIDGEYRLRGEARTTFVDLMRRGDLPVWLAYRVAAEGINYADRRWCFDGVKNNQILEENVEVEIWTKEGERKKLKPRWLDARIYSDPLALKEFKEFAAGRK
- Type: functional, Thailand/16681/1984
Each entry below carries its reported IC50.

Worked set:
{"STRUCTURE SMILES STRING": "O=C(Nc1cc(Cl)cc(C(=O)NC[C@H]2CCNC3(CC3)C2)c1)OCc1ccccc1", "IC50": "> 99.5 µM"}
{"STRUCTURE SMILES STRING": "O=C(O)Cc1cn2nc(-c3cc(Cl)cc(NC(=O)OCc4ccccc4)c3)ccc2n1", "IC50": "> 99.5 µM"}
{"STRUCTURE SMILES STRING": "Cc1cc(C(=O)Nc2ccc3c(c2)CNC3)cc2nn[nH]c12", "IC50": "> 99.5 µM"}
{"STRUCTURE SMILES STRING": "O=C(N[C@@H](C(=O)Nc1ncc([C@H]2CCCN2)s1)c1ccc(OCc2ccccc2)cc1)OCc1ccccc1", "IC50": "> 99.5 µM"}
{"STRUCTURE SMILES STRING": "O=c1oc2cccnc2n1CC=Cc1ccccc1", "IC50": "> 99.5 µM"}

Inquiry: Supply reported IC50 belonging to this molecule: CCn1c(=O)c(N2CC[C@H](CO)C2)nc2ccc(C(=O)OC)cc21
Reply text: 82.9 µM

Each recorded value in this set is attributed to ChEMBL document CHEMBL5604063.
